Each recorded value in this set is attributed to the supplement of paper PMC5949888.

System: Saccharomyces cerevisiae PS128 hsf1 delta, HSF1(1-493) fusion
Procedure Text: growth estimate (transactivation domain function in HSF1 fusion, heat-shock survival) (a.u. (slope of normalised read count over time)); higher = stronger growth at 37°C, i.e. more transactivation activity
Settings: library: design library
# label = t if growth estimate >= -0.06 else f

These recorded examples may help you get a feel for the data.
PEFPGIEPQELQELQALLQQ    t
VADGIWEELLSEDL    t
PEFPGIELQELQELQALLQA    f
DLDESGDYIFETTE    f
DLDESWDYIFETPE    t

Query: Has AADDIWEELLSEDL a recorded growth estimate greater than or equal to -0.06?
Reply: t

Query: Dear colleague, could you confirm whether EFGDLLDLDFILSN has growth estimate at or above -0.06?
Reply: t

Query: Would you say VADDIWEELKSEDL shows growth estimate at minimum -0.06?
Reply: f

====

Tested on: Saccharomyces cerevisiae PS128 hsf1 delta, HSF1(1-493) fusion
Procedure Text: growth estimate (transactivation domain function in HSF1 fusion, heat-shock survival) (a.u. (slope of normalised read count over time)); higher = stronger growth at 37°C, i.e. more transactivation activity
Settings: library: design library
Reported Endpoint: growth estimate
In your answer, state the number alone without any accompanying words.

Examples from the recorded data:
RMDDVYNYLFDD    -0.0132
EFNDLLDLDFGLSN    4.29
DPLSWIIELLEKDG    -0.102

Query RADDIWEELLSEDL yields growth estimate of 0.445

# growth estimate of EDLYSILWSDVK = 0.0539

The reported value for DFDLDMLADFDLDMLG in terms of growth estimate is 0.343

Recorded growth estimate (sequence PFPDTQRDFLKWWRSEEAQ ): -0.245

Lab note: measured growth estimate of EDDDEFSLRDSML was -0.248

// sample PLSSHGFSVDTSALLDLFSP , its growth estimate was 0.0027

Documented growth estimate of RDDDEFSLWDSML : 0.648

Measured growth estimate, DFDLDMLGDFDLDMLP : 22.2

growth estimate for QQNGEIAQLWDFR is -0.245

Consider QQNPEIAQLWDFN . Its measured growth estimate is -0.234

====

Test system: Saccharomyces cerevisiae PS128 hsf1 delta, HSF1(1-493) fusion
Procedure Text: growth estimate (transactivation domain function in HSF1 fusion, heat-shock survival) (a.u. (slope of normalised read count over time)); higher = stronger growth at 37°C, i.e. more transactivation activity
Settings: library: design library
Response key: yes means growth estimate >= 0.3; no means growth estimate < 0.3.

PFPDTQDDFLKWWRGEEAQ    no
MLSSHGFSVDTSAKLDLFSP    no
VADDIWEELLSEPL    yes
EFKDLLDLDFILSN    yes
DFDLDMLGDFDLDKLG    no
EDAYSILWSDVY    no

Query: Can MLSSHGFSVDTSALLPLFSP be said to have growth estimate at or above 0.3?
Reply: no

Query: // inclusive: growth estimate at least 0.3? input: EFNDLLDLDFALSN
Reply: yes

Query: Identify whether the reported growth estimate of the following sequence is 0.3 or greater: QQNGGIAQLWDFN
Reply: no

====

Test system: Saccharomyces cerevisiae PS128 hsf1 delta, HSF1(1-493) fusion
Procedure Text: growth estimate (transactivation domain function in HSF1 fusion, heat-shock survival) (a.u. (slope of normalised read count over time)); higher = stronger growth at 37°C, i.e. more transactivation activity
Settings: library: design library
Reported Endpoint: growth estimate
Please reply with the value in numeric form only.

Study these solved cases before continuing.
EDDDEFSGWDSML    0.0815
PEFPGIELQELGELQALLQQ    -0.0807
LFDYDFLPGNDFA    -0.232
PEFPGIALQELQELQALLQQ    -0.223
DFRLDMLGDFDLDMLG    10.1

Short answer on Saccharomyces cerevisiae PS128 hsf1 delta, HSF1(1-493) fusion for PEFPGIELAELQELQALLQQ , growth estimate: -0.181

Hey, Saccharomyces cerevisiae PS128 hsf1 delta, HSF1(1-493) fusion data for PEFPGIELQELQELQALLQG : growth estimate came out at -0.0522

Tested on Saccharomyces cerevisiae PS128 hsf1 delta, HSF1(1-493) fusion, the item QQGGEIAQLWDFN showed growth estimate equal to 0.0021

Field growth estimate (system: Saccharomyces cerevisiae PS128 hsf1 delta, HSF1(1-493) fusion) for entry DFDLGMLGDFDLDMLG = 12.4

The sequence TMDDVYNYLFDP on Saccharomyces cerevisiae PS128 hsf1 delta, HSF1(1-493) fusion: growth estimate was 1.58

// assay Saccharomyces cerevisiae PS128 hsf1 delta, HSF1(1-493) fusion, entry DFDLDMLGDFDLDPLG , growth estimate value = 9.65

====

Tested on: Saccharomyces cerevisiae PS128 hsf1 delta, HSF1(1-493) fusion
Procedure Text: growth estimate (transactivation domain function in HSF1 fusion, heat-shock survival) (a.u. (slope of normalised read count over time)); higher = stronger growth at 37°C, i.e. more transactivation activity
Settings: library: design library
// thresholds for growth estimate classes: one (below -0.1), two (-0.1 to below 0.9), three (0.9 or more)

Here are 10 sequences together with their reported answers.
DFDLDMLGRFDLDMLG    three
EFNDLLDLDFILSP    one
EDDDEFSLWDRML    one
MLSSHGASVDTSALLDLFSP    two
DPDLDMLGDFDLDMLG    three
PFPDTQADFLKWWRSEEAQ    one
MLSSHGFSVDKSALLDLFSP    one
MLSSHGFSVDTSAALDLFSP    one
LFDADFLFGNDFA    two
DADESWDYIFETTE    one

Query: Band for the recorded growth estimate of MLSSPGFSVDTSALLDLFSP ?
Reply: two

Query: Exam item: assign PFPDTQDDFLKWWGSEEAQ to the correct category.
Reply: three

Query: Would you mind sorting DLDESWDYIFRTTE into the appropriate category?
Reply: two

Query: Band for LFDYDFLFKNDFA ?
Reply: three

Query: Looking at EFNDKLDLDFILSN , which class would you pick?
Reply: one

Query: Field: class (growth estimate) — entry: MLPSHGFSVDTSALLDLFSP
Reply: two

====

System: Saccharomyces cerevisiae PS128 hsf1 delta, HSF1(1-493) fusion
Procedure Text: growth estimate (transactivation domain function in HSF1 fusion, heat-shock survival) (a.u. (slope of normalised read count over time)); higher = stronger growth at 37°C, i.e. more transactivation activity
Settings: library: design library
Reported Endpoint: growth estimate
API note: the answer field is a bare number with no unit suffix.

Examples with their reported growth estimate follow.
PEFPPIELQELQELQALLQQ    -0.0915
DLDESWDYIFETTP    3.58
VARDIWEELLSEDL    2.59
MLSSHGFSVDTSALGDLFSP    -0.213
QQNGEIAQLKDFN    -0.215

The sequence identified as QQNGEIAQLADFN registered its growth estimate at -0.24

Measured growth estimate, DELSWIKELLEKDG : 0.278

Kindly note the recorded growth estimate for VAKDIWEELLSEDL , which is 6.26

Recorded growth estimate (sequence RFDYDFLFGNDFA ): 2.62

For this sequence ( LGDYDFLFGNDFA ), measured growth estimate is 2.6

# sequence ADLYSILWSDVY ; its growth estimate = -0.203

MLSSHGFSGDTSALLDLFSP yielded growth estimate of -0.115

// growth estimate value for EDDDEFSLWDGML : 0.875

Value of measured growth estimate for the entry PEFPGIRLQELQELQALLQQ : -0.249

====

System: Saccharomyces cerevisiae PS128 hsf1 delta, HSF1(1-493) fusion
Procedure Text: growth estimate (transactivation domain function in HSF1 fusion, heat-shock survival) (a.u. (slope of normalised read count over time)); higher = stronger growth at 37°C, i.e. more transactivation activity
Settings: library: design library
Quick reference for growth estimate among some sequences
A bare number is all that is needed in reply.

Examples from the recorded data:
DFDLPMLGDFDLDMLG    5.28
PEFPGIELQELQELQALLQK    -0.125
EDPDEFSLWDSML    1.36

The measured growth estimate associated with DLDESWDYIFETTG reads 2.74

The reported value for DFGLDMLGDFDLDMLG in terms of growth estimate is 2.44

Record DLAESWDYIFETTE , field growth estimate: 0.371

Sure, the documented growth estimate for MLSSHGFSVGTSALLDLFSP is -0.248

// growth estimate lookup, sequence = EFNDLLKLDFILSN , result: -0.0935

====

Tested on: Saccharomyces cerevisiae PS128 hsf1 delta, HSF1(1-493) fusion
Procedure Text: growth estimate (transactivation domain function in HSF1 fusion, heat-shock survival) (a.u. (slope of normalised read count over time)); higher = stronger growth at 37°C, i.e. more transactivation activity
Settings: library: design library
Reported Endpoint: growth estimate
The answer should be written as a number, with no unit following it.

Some sequences with known growth estimate results, for comparison:
DLGESWDYIFETTE    0.355
DFDPDMLGDFDLDMLG    7.23
MLSSHGFSVDTSALLDLFSP    0.0347
KLDESWDYIFETTE    -0.0907
DFDLDGLGDFDLDMLG    2.75
LFDYDFLAGNDFA    0.0054
DFDLDMLGDFDGDMLG    4.69
TMDDVYNYRFDD    -0.0969
DFDLDMLGDFRLDMLG    0.535
EDLYSGLWSDVY    -0.186

For the next question, use this sequence.
Memo: EDDDEFSLWDSMP , reported growth estimate: -0.236
